# assaySystem: Cytochrome P450 1B1 (Homo sapiens)
# Sequence (Q16678 whole entry): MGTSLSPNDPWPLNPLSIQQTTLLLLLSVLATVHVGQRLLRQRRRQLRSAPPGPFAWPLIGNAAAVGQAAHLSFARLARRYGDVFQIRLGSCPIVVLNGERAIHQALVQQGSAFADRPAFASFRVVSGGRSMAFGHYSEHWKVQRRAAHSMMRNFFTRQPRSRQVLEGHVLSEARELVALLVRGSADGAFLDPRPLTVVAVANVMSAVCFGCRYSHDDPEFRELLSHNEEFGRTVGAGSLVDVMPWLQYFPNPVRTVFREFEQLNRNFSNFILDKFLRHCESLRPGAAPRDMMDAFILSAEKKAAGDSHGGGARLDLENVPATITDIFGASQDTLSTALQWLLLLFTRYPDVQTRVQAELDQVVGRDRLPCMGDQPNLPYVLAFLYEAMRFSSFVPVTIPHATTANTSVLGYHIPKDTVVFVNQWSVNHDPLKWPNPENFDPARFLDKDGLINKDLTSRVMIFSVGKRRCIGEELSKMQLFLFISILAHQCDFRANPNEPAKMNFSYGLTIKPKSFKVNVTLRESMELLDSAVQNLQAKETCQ
# testSummary: Inhibition of recombinant human CYP1B1 expressed in Escherichia coli membranes co-expressing NADPH-P450 reductase assessed as reduction in ethoxyresorufin O-de-ethylation preincubated for 3 mins followed by NADPH addition and measured after 10 mins by fluorometric method
measureName: pIC50
# reply with the number alone; pIC50 is -log10 of concentration in mol/L

Give pIC50 for the following compound: COc1cc(/C=C/c2cccs2)cc(OCCn2ccnc2)c1
8.40

* * *

# assaySystem: Cytochrome P450 1A1 (Homo sapiens, UniProt P04798)
# Sequence (P04798 whole entry): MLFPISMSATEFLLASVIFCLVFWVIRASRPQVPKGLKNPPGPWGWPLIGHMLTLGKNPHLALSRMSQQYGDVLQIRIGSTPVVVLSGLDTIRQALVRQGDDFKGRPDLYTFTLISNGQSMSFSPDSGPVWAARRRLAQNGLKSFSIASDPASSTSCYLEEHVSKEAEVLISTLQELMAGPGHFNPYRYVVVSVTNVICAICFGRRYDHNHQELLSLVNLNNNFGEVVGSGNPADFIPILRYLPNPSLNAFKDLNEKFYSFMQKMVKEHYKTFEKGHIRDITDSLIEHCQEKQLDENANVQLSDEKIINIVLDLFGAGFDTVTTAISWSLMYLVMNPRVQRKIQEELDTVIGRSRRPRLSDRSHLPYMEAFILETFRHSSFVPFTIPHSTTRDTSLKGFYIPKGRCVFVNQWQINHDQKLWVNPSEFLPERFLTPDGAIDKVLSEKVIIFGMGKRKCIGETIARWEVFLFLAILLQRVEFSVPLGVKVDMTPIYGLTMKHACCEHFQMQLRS
# testSummary: Inhibition of recombinant human CYP1A1 expressed in Escherichia coli membranes co-expressing NADPH-P450 reductase assessed as reduction in ethoxyresorufin O-de-ethylation preincubated for 3 mins followed by NADPH addition and measured after 10 mins by fluorometric method
In this section, each of the compounds is paired with its reported IC50.
Give the number; nM is assumed, so skip it.

smilesstring=O=c1cc(-c2ccccc2)oc2c1ccc1ccccc12 measurename=IC50 endpointresult=55

Please look at the following compound next.
Please list IC50 recorded for the compound COc1cc(/C=C/c2cccs2)cc(OCCn2ccnc2)c1
41

The values you see were collected from ChEMBL document CHEMBL4325932.
